- measured on: monkey IGF-1R on COS-7 cells (monkey (African green monkey))
- run description: cell-based or functional assay
Here the recorded % internalisation (monkey IGF-1R) is given for each entry.
Please answer using the number first and the unit second.

// below: answered binders
{"binder": "m214F8 (murine 214F8, hybridoma CNCM I-4775) (antibody, V domains shown) VH: QVQLQQSGSELVKPGASVKLSCKASGYTFTSYYIHWVKQRPGQGLEWIGWIWPGDGSTKYNERFKGKTTLTADKSSSTAYMFLSSLTSEDSAVYFCASPMITPNYAMDYWGQGASVTVSS VL: DIQMTQTTSSLSASLGDRVTFSCRASQDISKYLNWYQQQPDGTIKLLIYYTSRLHSGVPSRFSGRGSGTDYSLTITNLEQEDIATYFCQQGSALPYTFGGGTKLEIK", "% internalisation (monkey IGF-1R)": "71%"}
{"binder": "m213B10 (murine 213B10, hybridoma CNCM I-4774) (antibody, V domains shown) VH: QVQLQQSGSELVKPGASVKMSCKASGYTFTSYYIHWVKQRPGQGLEWIGWIWPGDGSTKYNERFKGKTTLTADKSSSTAYMFLSSLTSEDSAVYFCASPMITPNYAMDYWGQGASVTVSS VL: DIQMTQTTSSLSASLGDRVTISCRASQDISKYLNWYQQQPDGTIKLLIYYTSRLHSGVPSRFSGRGSGTDYSLTITNLEQEDIATYFCQQGSALPYTFGGGTKLEIK", "% internalisation (monkey IGF-1R)": "74%"}

// below: % internalisation (monkey IGF-1R) requested for another binder
# input Dear colleague, I am looking for the recorded % internalisation (monkey IGF-1R) of the following binder: m219D6 (murine 219D6, hybridoma CNCM I-4736) (antibody, V domains shown) VH: QVQLQQSGPELVKPGDSVKMSCKASGYSFTSYFIHWVKQRPGQGLEWIGWIWPGDGSTKYNEKFKGKTTLTTDKSSSTAYMFLNSLTSEDSAVYFCASPMITPNYAMDYWGQGASVTVSS VL: DIQMTQTTSSLSASLGDRVTISCRASQDISKYLNWYQQQPDGTVKLLIYYTSRLHSGVPSRFSGRGSGTDYSLTISNLEQEDIATYFCQQGSTLPYTFGGGTKLEIK
# output 71%
